test system: Staphylococcus aureus; test: Antibacterial activity against Staphylococcus aureus MTCC 740 at 2.5 x 10^-5 ug/ml after 24 hrs by disk diffusion assay; format: functional; conditions: MTCC 740, 24 h, read-out: GI
TEST_READOUT: inhibition of growth at 25 pg/mL (%)
Could you give me the number in %? Just the number is fine.

Solved cases (5 shown):
1) O=c1c(C2N=C(c3ccccc3)SS2)coc2ccccc12 (stereo unspecified) | 30.2
2) O=c1c(C(=S)Nc2ccccc2)coc2ccccc12 | 35.6
3) O=c1c(C2N=C(c3ccccc3)SS2)coc2cc(Cl)c(F)cc12 (stereo unspecified) | 32.9
4) Cc1ccc2occ(C3N=C(c4ccccc4)SS3)c(=O)c2c1 (stereo unspecified) | 35
5) O=c1c(C2N=C(c3ccccc3)SS2)coc2ccc(Cl)cc12 (stereo unspecified) | 26.4

Moving on to another molecule below.
Input O=c1c(C(=S)Nc2ccccc2)coc2cc(Cl)c(Cl)cc12 . Output inhibition of growth at 25 pg/mL: 3.78
